Tested on: CANDIDA ALBICANS CCH 442
PROTOCOL DETAILS: In vitro antibacterial activity, MIC, BHI agar dilution
Assay type: cell-based
RUN PARAMETERS: C. albicans CCH 442, unit assumed
PROPERTY MEASURED: MIC (µg/mL)
Kindly provide the numeric value in µg/mL only, without the unit symbol.

Enquiry: Field request: MIC | item: CC[C@H]1OC(=O)[C@H](C)C(=O)[C@H](C)[C@@H](O[C@@H]2O[C@H](C)C[C@H](N(C)C)[C@H]2O)[C@](C)(OC)C[C@@H](C)C2=N[C@@H](Cc3ccccc3)CN3C(=O)O[C@@]1(C)[C@H]3[C@H]2C
Return: 100

Enquiry: And what about the molecule CC[C@H]1OC(=O)[C@H](C)C(=O)[C@H](C)[C@@H](O[C@@H]2O[C@H](C)C[C@H](N(C)C)[C@H]2O)[C@](C)(OC)C[C@@H](C)C2=NCC(COC(=O)c3cc4ccccc4n3C)N3C(=O)O[C@@]1(C)[C@H]3[C@H]2C (some centres unmarked) ?
Return: 100

====

Each entry below lists one item and its recorded MIC value.
Tested on: KLEBSIELLA PNEUMONIAE ATCC 8045
PROTOCOL DETAILS: In vitro antibacterial activity, MIC, BHI agar dilution
Format: cell-based
RUN PARAMETERS: K. pneumoniae ATCC 8045, unit assumed

1. CCC1OC(=O)C(C)C(=O)C(C)C(OC2OC(C)CC(N(C)C)C2O)C(C)(OC)CC(C)C2=NC(CCOc3ccccc3)CN3C(=O)OC1(C)C3C2C (centres unmarked) | > 100 µg/mL
2. CCC1OC(=O)C(C)C(=O)C(C)C(OC2OC(C)CC(N(C)C)C2O)C(C)(OC)CC(C)C2=NCC(C)(CN(C)Cc3ccccc3)N3C(=O)OC1(C)C3C2C (centres unmarked) | > 100 µg/mL
3. CC[C@H]1OC(=O)[C@H](C)C(=O)[C@H](C)[C@@H](O[C@@H]2O[C@H](C)C[C@H](N(C)C)[C@H]2O)[C@](C)(OC)C[C@@H](C)C2=NC[C@@H](Cc3ccccc3)N3C(=O)O[C@@]1(C)[C@H]3[C@H]2C | 12.5 µg/mL
4. CC[C@H]1OC(=O)[C@H](C)C(=O)[C@H](C)[C@@H](O[C@@H]2O[C@H](C)C[C@H](N(C)C)[C@H]2O)[C@](C)(OC)C[C@@H](C)C2=N[C@H](COCc3cccc(Br)c3)CN3C(=O)O[C@@]1(C)[C@H]3[C@H]2C | > 100 µg/mL
5. CC[C@H]1OC(=O)[C@H](C)C(=O)[C@H](C)[C@@H](O[C@@H]2O[C@H](C)C[C@H](N(C)C)[C@H]2O)[C@](C)(OC)C[C@@H](C)C2=NC(COCc3ccccc3)C(COCc3ccccc3)N3C(=O)O[C@@]1(C)[C@H]3[C@H]2C (some centres unmarked) | 100 µg/mL

Enquiry: Return reported MIC; argument: CCC1OC(=O)C(C)C(=O)C(C)C(OC2OC(C)CC(N(C)C)C2O)C(C)(OC)CC(C)C2=NCC(CSc3ccccc3)(CN(C)Cc3ccccc3)N3C(=O)OC1(C)C3C2C (centres unmarked)
Return: > 100 µg/mL

Enquiry: Then this compound: CCC1OC(=O)C(C)C(=O)C(C)C(OC2OC(C)CC(N(C)C)C2O)C(C)(OC)CC(C)C2=NCC(CCc3ccccc3)N3C(=O)OC1(C)C3C2C (centres unmarked)
Return: > 100 µg/mL

Enquiry: Check CC[C@H]1OC(=O)[C@H](C)C(=O)[C@H](C)[C@@H](O[C@@H]2O[C@H](C)C[C@H](N(C)C)[C@H]2O)[C@](C)(OC)C[C@@H](C)C2=N[C@H](COCc3cccc(Cl)c3)CN3C(=O)O[C@@]1(C)[C@H]3[C@H]2C too.
Return: > 100 µg/mL

Enquiry: Same again, this time with CC[C@H]1OC(=O)[C@H](C)C(=O)[C@H](C)[C@@H](O[C@@H]2O[C@H](C)C[C@H](N(C)C)[C@H]2O)[C@](C)(OC)C[C@@H](C)C2=N[C@H](COCc3ccc(C(=O)OC)cc3)CN3C(=O)O[C@@]1(C)[C@H]3[C@H]2C
Return: > 100 µg/mL

Enquiry: And CC[C@H]1OC(=O)[C@H](C)C(=O)[C@H](C)[C@@H](O[C@@H]2O[C@H](C)C[C@H](N(C)C)[C@H]2O)[C@](C)(OC)C[C@@H](C)C2=NC[C@H](C)N3C(=O)O[C@@]1(C)[C@H]3[C@H]2C ?
Return: 100 µg/mL

Enquiry: Continue with CC[C@H]1OC(=O)[C@H](C)C(=O)[C@H](C)[C@@H](O[C@@H]2O[C@H](C)C[C@H](N(C)C)[C@H]2O)[C@](C)(OC)C[C@@H](C)C2=N[C@H](Cc3ccccc3)CN3C(=O)O[C@@]1(C)[C@H]3[C@H]2C
Return: > 100 µg/mL

Enquiry: Try CC[C@H]1OC(=O)[C@H](C)C(=O)[C@H](C)[C@@H](O[C@@H]2O[C@H](C)C[C@H](N(C)C)[C@H]2O)[C@](C)(OC)C[C@@H](C)C2=N[C@H](COCc3ccccc3Cl)CN3C(=O)O[C@@]1(C)[C@H]3[C@H]2C next.
Return: > 100 µg/mL

Enquiry: Quick one: CCC1OC(=O)C(C)C(=O)C(C)C(OC2OC(C)CC(N(C)C)C2O)C(C)(OC)CC(C)C2=NC(c3ccccc3)C(c3ccccc3)N3C(=O)OC1(C)C3C2C (centres unmarked)
Return: > 100 µg/mL

Enquiry: Next: CC[C@H]1OC(=O)[C@H](C)C(=O)[C@H](C)[C@@H](O[C@@H]2O[C@H](C)C[C@H](N(C)C)[C@H]2O)[C@](C)(OC)C[C@@H](C)C2=N[C@H](COCc3cc(C)c4ccccc4n3)CN3C(=O)O[C@@]1(C)[C@H]3[C@H]2C
Return: > 100 µg/mL

This collection of values is drawn from patent US6274715A.
